Each recorded value in this set is attributed to PubChem BioAssay (NCI).

tested on: SK-OV-3 ovarian; experiment: NCI tumour cell line growth inhibition, 48 h

>  <MOLECULE>
COc1cc2c(cc1OCCCC(=O)Nc1cc(C(=O)Nc3cc(C(=O)Nc4cc(C(=O)NCCCN(C)C)n(C)n4)n(C)c3)n(C)c1)N=CC1CCCN1C2=O (stereo not given)

>  <TGI>
> 100 µM

$$$$
>  <MOLECULE>
CC(CO)CCNc1ncnc2c1ncn2CCC(=O)O (stereo not given)

>  <TGI>
> 100 µM

$$$$
>  <MOLECULE>
CC(C)C(=O)NCC[C@@H](CNC(=O)OC(C)(C)C)NC(=O)OC(C)(C)C

>  <TGI>
> 100 µM

$$$$
>  <MOLECULE>
COC(=O)[C@@H]1c2[nH]c3ccccc3c2C[C@@H]2c3ccccc3NC(=O)[C@@H]21

>  <TGI>
> 100 µM

$$$$
>  <MOLECULE>
CCCCS/C(=C(/C#N)C(N)=O)c1cc2c([nH]1)CCCC2

>  <TGI>
93.8 µM

$$$$
>  <MOLECULE>
COc1ccc(/C=C2\C(=O)NC(=O)c3ccccc32)cc1OC

>  <TGI>
81 µM

$$$$
>  <MOLECULE>
CCCCNC(=O)OCCN=C1c2ccccc2C(Br)C(Br)c2ccccc21 (stereo not given)

>  <TGI>
> 100 µM

$$$$
>  <MOLECULE>
Cc1ccc(C(=O)N/N=C(\N=Nc2cccc(C)c2)c2ccc(N(CCC#N)CCC#N)cc2C)cc1

>  <TGI>
> 100 µM

$$$$
>  <MOLECULE>
COc1ccc(NC(=S)N/N=C(\c2ccccc2)c2ccccn2)cc1

>  <TGI>
16 µM

$$$$
>  <MOLECULE>
CC1(O)C(C)(O)C(C)(O)C1(C)O (stereo not given)

>  <TGI>
> 100 µM

$$$$
